Data origin, for the record: paper PMC10397247

Reported values of interaction score for individual entries
ASSAYED SYSTEM: T1, 4H3632-bH
T1 chain: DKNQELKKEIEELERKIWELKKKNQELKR
ASSAY PROTOCOL: two-hybrid library CCNG1;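 note: natural log of median RNA to DNA barcode read ratio; higher means stronger binding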
ENDPOINT NAME: interaction score

BINDER: DKIQELKKEIEELERKNWELKKENQELER [4H2619-bH]
MEASURED: -0.755
--
BINDER: DKNQELKKEIEELERKIWELKKKNQELKR [4H3632-bH]
MEASURED: -0.234
--
BINDER: DENQELEKKIEELKREIWELEKENQELER [4H1347-bH]
MEASURED: 1.71
--
BINDER: DKIQELKKENEELEREIWELEKENQELER [4H2691-bH]
MEASURED: -1.39
